# TARGET: CDK9/cyclin T (Homo sapiens)
# Sequence (P50750 whole entry): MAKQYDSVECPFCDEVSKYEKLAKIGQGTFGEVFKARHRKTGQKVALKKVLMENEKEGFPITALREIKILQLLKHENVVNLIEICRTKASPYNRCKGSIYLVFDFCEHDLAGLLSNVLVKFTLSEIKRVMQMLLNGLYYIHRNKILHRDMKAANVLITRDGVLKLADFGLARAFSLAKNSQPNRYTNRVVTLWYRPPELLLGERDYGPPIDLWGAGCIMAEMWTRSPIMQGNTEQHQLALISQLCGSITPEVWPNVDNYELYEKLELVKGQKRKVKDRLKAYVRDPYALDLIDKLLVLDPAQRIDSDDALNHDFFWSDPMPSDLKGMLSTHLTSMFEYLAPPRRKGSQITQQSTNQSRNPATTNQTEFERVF
# Sequence (O60563 whole entry partner): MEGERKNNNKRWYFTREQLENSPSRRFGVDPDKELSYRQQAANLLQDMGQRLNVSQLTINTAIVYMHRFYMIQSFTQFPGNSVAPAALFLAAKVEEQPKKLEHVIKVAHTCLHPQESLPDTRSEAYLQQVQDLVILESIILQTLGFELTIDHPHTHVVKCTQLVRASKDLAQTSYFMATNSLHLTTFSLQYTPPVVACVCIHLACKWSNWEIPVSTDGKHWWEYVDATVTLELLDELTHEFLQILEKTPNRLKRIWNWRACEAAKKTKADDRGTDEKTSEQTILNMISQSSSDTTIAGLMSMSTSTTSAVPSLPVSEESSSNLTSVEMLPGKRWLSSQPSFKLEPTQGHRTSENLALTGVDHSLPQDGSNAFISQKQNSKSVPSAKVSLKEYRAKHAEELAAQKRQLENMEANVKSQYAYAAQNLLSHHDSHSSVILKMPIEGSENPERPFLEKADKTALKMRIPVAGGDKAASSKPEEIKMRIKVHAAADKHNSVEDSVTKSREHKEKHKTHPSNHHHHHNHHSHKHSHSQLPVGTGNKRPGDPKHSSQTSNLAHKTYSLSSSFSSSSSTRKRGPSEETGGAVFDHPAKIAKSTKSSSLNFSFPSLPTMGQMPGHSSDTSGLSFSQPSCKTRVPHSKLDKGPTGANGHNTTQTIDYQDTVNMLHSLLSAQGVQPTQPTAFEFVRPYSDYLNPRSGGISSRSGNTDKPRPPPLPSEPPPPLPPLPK
# ASSAY_SUMMARY: Kinase assay CDK9/cyclin T
# MEASUREMENT_CONDITIONS: 15 μM ATP, 30° C., pRB fragment substrate
MEASURE: IC50
Answer format: value, then unit.

Q) Requested read-out: IC50. Entry: "CC[C@H](CO)Nc1nc(NCc2ccc(-c3ccccn3)cc2)c2ncn(C(C)C)c2n1"
A) 180 nM

Q) Queued: "CC[C@@H](CO)Nc1nc(NCc2ccc(-c3ccccn3)cc2)c2ncn(C(C)C)c2n1"
A) 110 nM

----------
Below are compounds with their pIC50 as measured on Erk2 (Homo sapiens).
Sequence (P28482 whole entry, species assumed): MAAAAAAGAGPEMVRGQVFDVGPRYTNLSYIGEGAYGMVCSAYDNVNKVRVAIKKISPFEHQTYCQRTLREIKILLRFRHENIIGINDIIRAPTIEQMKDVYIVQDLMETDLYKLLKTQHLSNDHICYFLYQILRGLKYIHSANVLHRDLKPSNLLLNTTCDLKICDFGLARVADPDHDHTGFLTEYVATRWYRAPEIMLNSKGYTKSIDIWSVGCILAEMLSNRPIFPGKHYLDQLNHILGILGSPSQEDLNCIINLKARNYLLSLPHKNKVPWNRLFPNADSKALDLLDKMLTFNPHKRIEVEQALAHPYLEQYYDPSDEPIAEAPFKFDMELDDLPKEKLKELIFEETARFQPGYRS
In simple prose, pIC50 is minus the logarithm base ten of a concentration in moles per litre.

{"STRUCTURE": "CC[C@H](CO)Nc1nc(NCc2ccc(-c3ccccn3)cc2)c2ncn(C(C)C)c2n1", "TARGET": "Erk2 (Homo sapiens)", "OBSERVED_MEASUREMENT": 5.44}

Now consider the entry below.
Q) Requested read-out: pIC50. Entry: "CC[C@@H](CO)Nc1nc(NCc2ccc(-c3ccccn3)cc2)c2ncn(C(C)C)c2n1"
A) 5.68
